- Test system: NCI/ADR-RES
- protocol: NCI tumour cell line growth inhibition, 48 h
Activity calls are given as the source filed them. Rule as the data show it: active = GI50 up to about 1.1 µM and inactive = higher. Where a SMILES comes first, the peptide text is derived from it. [ ]: non-standard residue; d: D form. Phe(F5) = N[CH](Cc1c(F)c(F)c(F)c(F)c1F)C(=O)O
endpoint-name: GI50

Some molecules with known GI50 results, for comparison:
molecule	result
COC(=O)C(CC(C)C)NC(=O)C(Cc1c[nH]cn1)NC(=O)CNC(=O)C(NC(=O)C(C)NC(=O)C(Cc1c[nH]c2ccccc12)NC(=O)C(CCC(=O)O)NC(=O)C(N)Cc1c(F)c(F)c(F)c(F)c1F)C(C)C (centres undefined) (H-[Phe(F5)]EWAVGHL-OMe; configuration not given here)	> 12.5 µM (inactive)
Oc1nncc2[nH]c(-c3ccccc3)cc12	25.2 µM (inactive)
CCN(CC)CCCNc1nc(=O)[nH]c(C)c1C(=O)Nc1ccc2c(c1)c1ccccc1n2CC	> 100 µM (inactive)

We next turn to a different molecule, shown below.
Enquiry: Query: GI50; subject: CNC(=O)CNC(=O)C(Cc1ccc(NC(=O)CCCCC(C)=O)cc1)NC(=O)C(CCC(=O)OCc1ccccc1)NC(=O)OC(C)(C)C (centres undefined)
Return: > 100 µM (inactive)
